assay: Inhibition of ABCB1 in human K562/A02 cells assessed as potentiation of adriamycin-induced cytotoxicity by measuring compound concentration required for reduction of ADR IC50 after 48 hrs by MTT assay
readout-label: EC50 (µM)
The reply should be a number in µM, with the unit left off.

Noted for COc1cc2c(cc1OC)CN(CCc1ccc(NC(=O)c3cccnc3NCc3ccncc3)cc1)CC2 : its EC50 reads 0.12

Noted for O=C(Nc1ccc(N2CCOCC2)cc1)c1cccnc1NCc1ccncc1 : its EC50 reads 0.329

// provenance: BindingDB's records for doi:10.1021/acs.jmedchem.6b01879
